Biological target: panel of 442 kinases (Homo sapiens, UniProt Q8WXR4)
Construct: purchased KINOMEscan
Sequence (Q8WXR4 1-1341): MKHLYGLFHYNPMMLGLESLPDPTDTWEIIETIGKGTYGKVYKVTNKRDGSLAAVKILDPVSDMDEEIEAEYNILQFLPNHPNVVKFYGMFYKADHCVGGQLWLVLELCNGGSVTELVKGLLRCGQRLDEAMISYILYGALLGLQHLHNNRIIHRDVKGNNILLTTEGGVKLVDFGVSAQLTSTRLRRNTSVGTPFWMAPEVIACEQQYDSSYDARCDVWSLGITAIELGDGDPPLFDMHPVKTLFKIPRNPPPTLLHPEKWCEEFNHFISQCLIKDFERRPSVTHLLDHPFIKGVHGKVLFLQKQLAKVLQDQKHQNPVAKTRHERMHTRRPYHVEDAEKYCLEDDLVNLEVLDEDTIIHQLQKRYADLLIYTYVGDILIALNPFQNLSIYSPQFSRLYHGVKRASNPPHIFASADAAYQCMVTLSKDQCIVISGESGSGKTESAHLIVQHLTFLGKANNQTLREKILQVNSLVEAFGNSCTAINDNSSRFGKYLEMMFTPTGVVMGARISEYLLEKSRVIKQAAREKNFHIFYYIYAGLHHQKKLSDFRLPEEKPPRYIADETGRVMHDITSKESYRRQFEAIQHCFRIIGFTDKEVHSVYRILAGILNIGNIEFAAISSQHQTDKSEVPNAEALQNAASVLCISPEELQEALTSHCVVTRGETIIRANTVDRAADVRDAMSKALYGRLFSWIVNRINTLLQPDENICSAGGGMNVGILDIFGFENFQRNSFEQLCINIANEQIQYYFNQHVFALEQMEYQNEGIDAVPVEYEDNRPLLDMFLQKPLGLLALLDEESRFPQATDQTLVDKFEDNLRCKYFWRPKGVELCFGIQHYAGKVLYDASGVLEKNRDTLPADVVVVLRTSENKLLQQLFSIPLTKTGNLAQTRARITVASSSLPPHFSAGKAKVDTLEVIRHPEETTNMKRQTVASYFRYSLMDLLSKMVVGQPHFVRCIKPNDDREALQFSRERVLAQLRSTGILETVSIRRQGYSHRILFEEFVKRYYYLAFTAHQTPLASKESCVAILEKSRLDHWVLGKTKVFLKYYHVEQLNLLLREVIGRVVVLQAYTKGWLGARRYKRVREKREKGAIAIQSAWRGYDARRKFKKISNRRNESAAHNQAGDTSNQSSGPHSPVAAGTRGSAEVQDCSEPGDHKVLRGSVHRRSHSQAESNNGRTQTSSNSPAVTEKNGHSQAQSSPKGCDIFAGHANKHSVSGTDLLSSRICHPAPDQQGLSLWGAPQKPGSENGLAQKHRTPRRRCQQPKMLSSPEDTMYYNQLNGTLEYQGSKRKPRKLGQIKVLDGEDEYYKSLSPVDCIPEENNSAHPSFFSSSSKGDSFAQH
Format: binding
Details: Compound Concentration 10 µM
recorded endpoint: KINOMEscan: MYO3B
Numbers only.

>  <compound>
COc1cc(C(=O)N2CCC(N3CCN(C)CC3)CC2)ccc1Nc1ncc2c(n1)N(C)c1ccccc1C(=O)N2C [15 (LRRK2-IN-1)]

>  <measured number>
83

$$$$

Each compound below has a recorded value; state its KINOMEscan: MYO3B.
1. COc1cc(C(=O)N2CCC(N3CCN(C)CC3)CC2)ccc1Nc1ncc2c(n1)N1CCc3cccc(c31)C(=O)N2C [Compound 24]
2. COc1cc(C(=O)N2CCC(N3CCN(C)CC3)CC2)ccc1Nc1ncc2c(n1)N(C1CCCC1)c1ccccc1C(=O)N2C [Compound 25]
3. CCOc1cc(C(=O)N2CCC(N3CCN(C)CC3)CC2)ccc1Nc1ncc2c(n1)N(C1CCCC1)c1ccccc1C(=O)N2C [Compound 26]

Out:
[76, 100, 100]
